Cited source for all entries: PubChem BioAssay (NCATS)

The compounds listed here are annotated with their activity, negative = cell killing.
assay: Drug repurposing screens with cells derived from glioblastoma tumor samples (AID 1345199); conditions: GBM patient neurospheres viability, ATP luminescence, 48 h; at 45.9 µM (top of the series); tumour line B; also: % is scaled to controls: 0 for no effect and ±100 for the full control effect; nearly all actives have a fitted effect of over 40% in size
Results filed as inconclusive are left out.
# value in %; strip the unit string

Field: example entries. Status: answers known.
> print(dat)
                                   compound                    measurementname  reported
1  C=C1CC[C@@]2(O)[C@H]3Cc4ccc(O)c5c4[C@@]2(CCN3CC2CC2)[C@H]1O5  activity, negative = cell killing       -11
2                        COc1ccccc1N1CCNCC1  activity, negative = cell killing     -16.5
3  O=c1oc2ccccc2c(O)c1C(CC(O)c1ccc(-c2ccc(Br)cc2)cc1)c1ccccc1 (stereo unspecified)  activity, negative = cell killing     -19.7

Field activity, negative = cell killing (entry O=C1NCN(c2ccccc2)C12CCN(CC1COc3ccccc3O1)CC2 (stereo unspecified) ) reads -6.74

Field activity, negative = cell killing (entry Cc1ccc2c(c1)C1CN(C)CCC1N2 (stereo unspecified) ) reads -7.68

Field activity, negative = cell killing (entry O=C1CC[C@@]2(O)[C@H]3Cc4ccc(O)c5c4[C@@]2(CCN3CC2CC2)[C@H]1O5 ) reads 1.04

Field activity, negative = cell killing (entry Cn1cc(C2=C(c3cn(C4CCN(Cc5ccccn5)CC4)c4ccccc34)C(=O)NC2=O)c2ccccc21 ) reads 31.3

Field activity, negative = cell killing (entry N[C@@H]1C[C@H]1c1ccccc1 ) reads -7.72

Field activity, negative = cell killing (entry C#CCOC(C(=O)OCCN(C)C)(c1ccccc1)c1ccccc1 ) reads 3.88

Field activity, negative = cell killing (entry CCCN1CCC[C@@H]2Cc3[nH]ncc3C[C@H]21 ) reads -3.57

Field activity, negative = cell killing (entry Oc1ccccc1-c1ccccc1 ) reads -14.5

---

test: Cell Viability - LYMP2-015 (AID 971); settings: LYMP2-015 lymphoblastoid cell viability; series mostly up to 92.2 µM;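 also: cells exposed to compound for 24 h; nearly all actives have a fitted effect of over 55% in size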; also: potency is read from the fitted curve at half-maximal effect
Records with an inconclusive call do not appear. Calls of active or inactive are those of the source. The call rests on the fitted dose curve; in most records, active means well fitted cell-killing curve with a large enough effect; inconclusive means small, poorly fitted or top-dose-only effect; inactive means flat fitted curve, though single readings scatter.
measurementName: Potency

> print(dat)
                                molecule  measurementname          reported
1       CCOP(=S)(OCC)Oc1cc(C)nc(C(C)C)n1          Potency          inactive
2         CN(C)CCC=C1c2ccccc2CCc2ccccc21          Potency  31.6 µM (active)
3                 c1ccc2c(c1)Nc1ccccc1S2          Potency          inactive
4                     Oc1ccccc1-c1ccccc1          Potency          inactive
5  CNCC(O)c1ccc(O)cc1 (stereo not given)          Potency          inactive

Field Potency (entry Oc1ccc(Cl)cc1Cc1ccccc1 ) reads inactive

Field Potency (entry CC(COc1ccccc1)N(CCCl)Cc1ccccc1 (stereo not given) ) reads 39.8 µM (active)

Field Potency (entry N[C@@H](Cc1ccc(N(CCCl)CCCl)cc1)C(=O)O ) reads 31.6 µM (active)

Field Potency (entry NCC(O)c1ccc(O)cc1 (stereo not given) ) reads inactive

Field Potency (entry OCCOc1ccccc1 ) reads inactive
